Target system: HLA-DR DRB1*0401 (DR4) (Homo sapiens, UniProt P01903+P01911, A100K/A169T/F76Y/I96L/K127E/L162R/M171V/N62H/P40V/Q125Y/R42H/S133A/S149N/S66Y/V115G/V209L/W38E)
Assay procedure: biochemical
Type: binding
Recorded conditions: DRB1 *0401
# log10 of IC50 values compiled below
Assay metric: log10 of IC50 (log10 of the value in nM)

INSERT INTO results (smiles_str, assay_metric, test_value) VALUES
  ('CSCC[C@H](NC(=O)CNC(=O)CNC(=O)[C@H](CCCNC(=N)N)NC(=O)[C@@H](NC(=O)[C@H](CCC(N)=O)NC(=O)[C@H](C)NC(=O)[C@@H](NC(=O)[C@@H](NC(=O)[C@H](CC(C)C)NC(=O)[C@H](Cc1c[nH]cn1)NC(=O)[C@H](Cc1ccc(O)cc1)NC(=O)[C@@H](N)CCCCN)[C@@H](C)O)C(C)C)C(C)C)C(=O)N[C@H](C(=O)N[C@@H](Cc1ccccc1)C(=O)O)C(C)C', 'log10 of IC50', 2.91),
  ('CSCC[C@H](NC(=O)[C@H](CC(C)C)NC(=O)[C@H](CC(=O)O)NC(=O)[C@@H](N)Cc1c[nH]cn1)C(=O)N[C@@H](CC(C)C)C(=O)N[C@@H](CC(C)C)C(=O)N[C@@H](CCCNC(=N)N)C(=O)N[C@@H](CC(C)C)C(=O)N[C@@H](CO)C(=O)N[C@@H](CCC(=O)O)C(=O)N1CCC[C@H]1C(=O)N[C@@H](C)C(=O)N[C@@H](CCC(=O)O)C(=O)N[C@@H](CC(C)C)C(=O)N[C@H](C(=O)O)[C@@H](C)O', 'log10 of IC50', 3.79),
  ('CC[C@H](C)[C@H](NC(=O)[C@H](CO)NC(=O)[C@H](CC(C)C)NC(=O)[C@@H](NC(=O)[C@H](CC(C)C)NC(=O)[C@H](CC(=O)O)NC(=O)[C@H](Cc1c[nH]c2ccccc12)NC(=O)[C@@H](N)CCSC)C(C)C)C(=O)N[C@@H](C)C(=O)N[C@@H](CC(C)C)C(=O)N[C@@H](CO)C(=O)N[C@H](C(=O)NCC(=O)N[C@@H](CS)C(=O)N[C@H](C(=O)O)[C@@H](C)O)C(C)C', 'log10 of IC50', 3.27),
  ('CC[C@H](C)[C@H](NC(=O)[C@@H]1CCCN1)C(=O)N[C@@H](CC(C)C)C(=O)N[C@@H](CC(C)C)C(=O)N[C@@H](Cc1c[nH]c2ccccc12)C(=O)N[C@@H](CCC(N)=O)C(=O)N1CCC[C@H]1C(=O)N[C@H](C(=O)N1CCC[C@H]1C(=O)N[C@H](C(=O)N[C@@H](Cc1c[nH]cn1)C(=O)N[C@H](C(=O)N[C@H](C(=O)N1CCC[C@H]1C(=O)N[C@@H](CC(C)C)C(=O)O)C(C)C)[C@@H](C)O)C(C)C)[C@@H](C)CC', 'log10 of IC50', 2.41),
  ('CC[C@H](C)[C@H](NC(=O)[C@@H](N)CC(C)C)C(=O)N[C@@H](CCSC)C(=O)N[C@@H](Cc1ccc(O)cc1)C(=O)N[C@@H](CO)C(=O)N[C@@H](C)C(=O)N[C@@H](Cc1c[nH]cn1)C(=O)N[C@@H](CC(=O)O)C(=O)N[C@H](C(=O)N[C@H](C(=O)N[C@H](C(=O)N[C@@H](CO)C(=O)NCC(=O)N[C@@H](CC(C)C)C(=O)N[C@@H](CCC(N)=O)C(=O)O)C(C)C)[C@@H](C)O)[C@@H](C)O', 'log10 of IC50', 1.38);
